# Lookup of reported pEC50 keyed by entry
- Tested on: human red blood cells
- protocol notes: cells
- Type: cell-based
- condition description: red cells of human
Expect pEC50 as a plain number equal to -log10 of the molar concentration.

Recorded results for 5 compounds are shown here.
{"columns": ["smiles", "pEC50"],
 "data": [
  ["CC(C)(C)c1cc(CC(CN)(Cc2cc(C(C)(C)C)cc(C(C)(C)C)c2)C(=O)N[C@@H](CCCNC(=N)N)C(N)=O)cc(C(C)(C)C)c1", 4.00],
  ["CC(C)c1ccc(CC(CN)(Cc2ccc(C(C)C)cc2)C(=O)N[C@@H](CCCNC(=N)N)C(N)=O)cc1", 3.41],
  ["N=C(N)NCCC[C@H](NC(=O)C(CN)(Cc1ccc2ccccc2c1)Cc1ccc2ccccc2c1)C(N)=O", 3.33],
  ["CN(C)CCN1CCN(C(=O)C(CN)(Cc2ccc(C(C)(C)C)cc2)Cc2ccc(C(C)(C)C)cc2)CC1", 3.47],
  ["CN(C)CCN1CCN(C(=O)C(CN)(Cc2ccc3ccccc3c2)Cc2ccc3ccccc3c2)CC1", 3.39]
]}

--- query ---
Lookup result for CN(C)CCN1CCN(C(=O)C(CN)(Cc2ccc(C(F)(F)F)cc2)Cc2ccc(C(F)(F)F)cc2)CC1 ; measured pEC50: 2.95

* * *

- Tested on: methicillin resistant Staphylococcus epidermidis (ATCC 27626)
- protocol notes: microbe, parasite or virus in culture
- Type: cell-based
- condition description: Staphylococcus epidermidis, ATCC 27626 / MRSE, Example 2; values separated by / are repeat tests; read-out: Antimicrobial potency (MIC) MRSE
measurement type: log10 of MIC (log10 of the value in µg/mL)
All values: base-10 log of MIC in µg/mL.

{"columns": ["smiles", "log10 of MIC"],
 "data": [
  ["CN(C)CCNC(=O)C(CN)(CCCc1ccccc1)CCCc1ccccc1", 1.54],
  ["CN(C)CCN1CCN(C(=O)C(CN)(CCCc2ccccc2)CCCc2ccccc2)CC1", 1.70],
  ["CC(C)(C)c1cc(CC(CN)(Cc2cc(C(C)(C)C)cc(C(C)(C)C)c2)C(=O)NCCN)cc(C(C)(C)C)c1", 0.40],
  ["NCCNC(=O)C(CN)(CCC1CCCCC1)CCC1CCCCC1", 0.40],
  ["CN(C)CCN1CCN(C(=O)C(CN)(Cc2ccc(C(C)(C)C)cc2)Cc2ccc(C(C)(C)C)cc2)CC1", 1.00]
]}

Lookup result for Cc1ccc(CC(CN)(Cc2ccc(C)cc2)C(=O)NCCN)cc1 ; measured log10 of MIC: 2.00

Lookup result for Cc1cc(C)cc(CC(CN)(Cc2cc(C)cc(C)c2)C(=O)NCCN)c1 ; measured log10 of MIC: 0.70

Lookup result for NCCNC(=O)C(CN)(Cc1ccc2ccccc2c1)Cc1ccc2ccccc2c1 ; measured log10 of MIC: 0.40

Lookup result for CN(C)CCNC(=O)C(CN)(Cc1ccc2ccccc2c1)Cc1ccc2ccccc2c1 ; measured log10 of MIC: 0.70

Lookup result for CN1CCN(C(=O)C(CN)(CCCc2ccccc2)CCCc2ccccc2)CC1 ; measured log10 of MIC: 2.30

Lookup result for Cc1cc(C)cc(CC(CN)(Cc2cc(C)cc(C)c2)C(=O)N2CCN(CCN(C)C)CC2)c1 ; measured log10 of MIC: 1.54

Lookup result for CN(C)CCN1CCN(C(=O)C(CN)(Cc2ccc3ccccc3c2)Cc2ccc3ccccc3c2)CC1 ; measured log10 of MIC: 1.00

Lookup result for Cc1cc(C)cc(CC(CN)(Cc2cc(C)cc(C)c2)C(=O)N2CCN(C)CC2)c1 ; measured log10 of MIC: 1.54

Lookup result for NCCNC(=O)C(CN)(Cc1ccc(C(F)(F)F)cc1)Cc1ccc(C(F)(F)F)cc1 ; measured log10 of MIC: 1.00

Lookup result for CN1CCN(C(=O)C(CN)(Cc2ccc(C(F)(F)F)cc2)Cc2ccc(C(F)(F)F)cc2)CC1 ; measured log10 of MIC: 1.70

* * *

- System: MRC-5
- protocol notes: Toxicity assay MRC-5
- Format: cell-based
- condition description: Example 2; highest concentration tested 500 μg/ml
Starred links: 1 amine or outer side, 2 acyl side, 3 side chain; linkers in the order of their positions; H or OH if unused. Non-standard residues stand in square brackets, D forms with d. Residues, ends and D or L forms follow the SMILES beside them. X5 = O=C(C(CCC1CCCCC1)(CCC1CCCCC1)CN[*:1])[*:2]
measurement type: Toxicity MRC-5 (µg/mL)
Express the result in µg/mL but write the number alone.

{"columns": ["compound", "Toxicity MRC-5, µg/mL"],
 "data": [
  ["CC(C)(C)c1cc(CC(CN)(Cc2cc(C(C)(C)C)cc(C(C)(C)C)c2)C(=O)NCCN)cc(C(C)(C)C)c1", 8.5],
  ["NCCCC[C@@H](N)C(=O)N[C@H](CCCCN)C(=O)N[C@H](Cc1c[nH]c2ccccc12)C(=O)NCC(CCC1CCCCC1)(CCC1CCCCC1)C(=O)N[C@@H](Cc1c[nH]c2ccccc12)C(=O)N[C@@H](CCCCN)C(=O)N[C@@H](CCCCN)C(N)=O [Compound 15] (H-[dK][dK][dW][X5]WKK-NH2)", 45.7]
]}

Measured on MRC-5, NCCCC[C@@H](N)C(=O)N[C@H](CCCCN)C(=O)N[C@H](Cc1c[nH]c2ccccc12)C(=O)NCC(Cc1ccc2ccccc2c1)(Cc1ccc2ccccc2c1)C(=O)N[C@@H](Cc1c[nH]c2ccccc12)C(=O)N[C@@H](CCCCN)C(=O)N[C@@H](CCCCN)C(N)=O has a documented Toxicity MRC-5 of 103

Measured on MRC-5, COc1cc(CC(CN)(Cc2cc(OC)cc(OC)c2)C(=O)NCCN)cc(OC)c1 has a documented Toxicity MRC-5 of 68

* * *

- Tested on: Escherichia coli (ATTC 25922)
- protocol notes: microbe, parasite or virus in culture
- Assay type: cell-based
- condition description: Escherichia coli, Example 2; values separated by / are repeat tests; read-out: Antimicrobial potency (MIC) E. coli
measurement type: MIC (µg/mL)
Express the result in µg/mL but write the number alone.

Recorded results for 5 molecules are shown here.
{"columns": ["smiles", "target desc", "measured number"],
 "data": [
  ["CN(C)CCN1CCN(C(=O)C(CN)(Cc2ccc(C(C)(C)C)cc2)Cc2ccc(C(C)(C)C)cc2)CC1", "Escherichia coli (ATTC 25922)", 10],
  ["CN(C)CCN1CCN(C(=O)C(CN)(Cc2ccc(C(F)(F)F)cc2)Cc2ccc(C(F)(F)F)cc2)CC1", "Escherichia coli (ATTC 25922)", 100],
  ["Cc1cc(C)cc(CC(CN)(Cc2cc(C)cc(C)c2)C(=O)N2CCN(CCN(C)C)CC2)c1", "Escherichia coli (ATTC 25922)", 100],
  ["CN1CCN(C(=O)C(CN)(Cc2ccc(C(F)(F)F)cc2)Cc2ccc(C(F)(F)F)cc2)CC1", "Escherichia coli (ATTC 25922)", 50],
  ["CN(C)CCN1CCN(C(=O)C(CN)(Cc2ccc3ccccc3c2)Cc2ccc3ccccc3c2)CC1", "Escherichia coli (ATTC 25922)", 35]
]}

Lookup result for NCCNC(=O)C(CN)(Cc1ccc(C(F)(F)F)cc1)Cc1ccc(C(F)(F)F)cc1 ; measured MIC: 35

Lookup result for Cc1cc(C)cc(CC(CN)(Cc2cc(C)cc(C)c2)C(=O)NCCN(C)C)c1 ; measured MIC: 50

* * *

- Tested on: Pseudomonas aeruginosa (ATCC 27853)
- protocol notes: microbe, parasite or virus in culture
- Format: cell-based
- condition description: Pseudomonas aeruginosa, ATCC27853; Example 4; ATCC 27853; di-trifluoroacetate salts; highest concentration tested 200 μg/ml; read-out: MIC P. aeruginosa
# Lookup of reported log10 of MIC keyed by entry
All values: base-10 log of MIC in µM.

{"columns": ["smiles", "measurement type", "measured number"],
 "data": [
  ["NCCNC(=O)C(CN)(Cc1ccc2ccccc2c1)Cc1ccc2ccccc2c1", "log10 of MIC", 1.74],
  ["CN(C)CCNC(=O)C(CN)(Cc1ccc(C(C)(C)C)cc1)Cc1ccc(C(C)(C)C)cc1", "log10 of MIC", 1.87],
  ["CC(C)(C)c1ccc(CC(CN)(Cc2ccc(C(C)(C)C)cc2)C(=O)NCCN)cc1", "log10 of MIC", 1.36],
  ["CN1CCN(C(=O)C(CN)(Cc2ccc(C(C)(C)C)cc2)Cc2ccc(C(C)(C)C)cc2)CC1", "log10 of MIC", 2.46]
]}

--- query ---
Measured on Pseudomonas aeruginosa (ATCC 27853), CN(C)CCNC(=O)C(CN)(Cc1ccc2ccccc2c1)Cc1ccc2ccccc2c1 has a documented log10 of MIC of 2.48

* * *

- Tested on: Staphylococcus aureus (ATTC 25923)
- protocol notes: microbe, parasite or virus in culture
- Assay type: cell-based
- condition description: ATTC 25923; read-out: MIC S. aureus
measurement type: MIC (µM)
Express the result in µM but write the number alone.

Recorded results for 4 molecules are shown here.
{"columns": ["smiles", "target desc", "measurement type", "measured number"],
 "data": [
  ["Cc1cc(C)cc(CC(CN)(Cc2cc(C)cc(C)c2)C(=O)N[C@@H](CCCNC(=N)N)C(N)=O)c1", "Staphylococcus aureus (ATTC 25923)", "MIC", 60],
  ["N=C(N)NCCC[C@H](NC(=O)C(CN)(CCc1ccccc1)CCc1ccccc1)C(N)=O", "Staphylococcus aureus (ATTC 25923)", "MIC", 147],
  ["CC(C)(C)c1ccc(CC(CN)(Cc2ccc(C(C)(C)C)cc2)C(=O)N[C@@H](CCCNC(=N)N)C(N)=O)cc1", "Staphylococcus aureus (ATTC 25923)", "MIC", 6.5],
  ["N=C(N)NCCC[C@H](NC(=O)C(CN)(CCCc1ccccc1)CCCc1ccccc1)C(N)=O", "Staphylococcus aureus (ATTC 25923)", "MIC", 49]
]}

--- query ---
Lookup result for CN(C)CCN1CCN(C(=O)C(CN)(Cc2ccc(C(C)(C)C)cc2)Cc2ccc(C(C)(C)C)cc2)CC1 ; measured MIC: 13

These measurements were taken from patent US8809280B2.
